# Tested on: human monocytes
# protocolDetails: Assay (f): stimulated eicosanoid (PGE2, LTC4) release by human monocytes
# Type: cell-based
# cond: Monocyte, 0.25 h, A23187 1 μM, 15 min, read-out: IC50 for LTC4 release
Reported IC50 values for a set of molecules

O=C(Nc1cc(C(F)(F)F)cc(C(F)(F)F)c1)Nc1ccccc1Oc1ccccc1C(=O)O [Example 2] = ~1000 nM
O=C(Nc1cc(C(F)(F)F)cc(C(F)(F)F)c1)Nc1cc(C(F)(F)F)ccc1Oc1ccccc1C(=O)O [Example 7] = 1000 to 2000 nM

Inquiry: For O=C(Nc1ccc(Br)cc1)Nc1cc(C(F)(F)F)ccc1Oc1ccccc1C(=O)O [Example 1] , what is its reported IC50?
Reply text: 300 nM

---

# Test system: human monocytes
# protocolDetails: Assay (f): stimulated eicosanoid (PGE2, LTC4) release by human monocytes
# Format: cell-based
# cond: Monocyte, 0.25 h, A23187 1 μM, 15 min, read-out: IC50 of PGE2 release
quantityKind: IC50

O=C(Nc1cc(C(F)(F)F)cc(C(F)(F)F)c1)Nc1ccccc1Oc1ccccc1C(=O)O [Example 2] = 100 to 1000 nM
O=C(Nc1ccc(Br)cc1)Nc1cc(C(F)(F)F)ccc1Oc1ccccc1C(=O)O [Example 1] = > 3000 nM

# context switch: different compound, same IC50
Inquiry: Requested field: IC50. Item: O=C(Nc1cc(C(F)(F)F)cc(C(F)(F)F)c1)Nc1cc(C(F)(F)F)ccc1Oc1ccccc1C(=O)O [Example 7]
Reply text: > 10000 nM
